Attribution: PubChem BioAssay (NCI)

// growth inhibition lookup, one value per entry
# assay_remarks: NCI Yeast Anticancer Drug Screen. Data for the mlh1 rad18 strain (AID 175)
# test_parameters: S. cerevisiae mlh1 rad18 strain growth inhibition; at 50.0 µM (retest, dose inferred, filed as 5.0); hits give high values
About 79,000 compounds went through this panel and 15% of them were active in at least one assay; those are over-represented in the sample as a whole.

- compound: "Cc1c(C(C)C)cc(OCCO)cc1C(C)C"
  growth inhibition, %: -18
- compound: "CC(C)OC(=O)Nc1ccc2nc(-c3cscn3)[nH]c2c1"
  growth inhibition, %: 87
- compound: "COc1ccc([N+](=O)[O-])c2c(NCCCN(C)C)c3ccccc3nc12"
  growth inhibition, %: 98
- compound: "CCOC(=O)COc1c(OC)cc(C2C3=C(COC3=O)Oc3cc4c(cc32)OCO4)cc1OC (stereo unspecified)"
  growth inhibition, %: 49
- compound: "C/C=C/SC(=Nc1ccccc1)Nc1ccccc1"
  growth inhibition, %: 70
- compound: "O=C1C=C(c2ccccc2)OC1(c1ccccc1)N1CCOCC1 (stereo unspecified)"
  growth inhibition, %: 75

----------
// growth inhibition lookup, one value per entry
# assay_remarks: NCI Yeast Anticancer Drug Screen. Data for the rad50EPP+ strain (AID 151);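 also: 0% = growth of vehicle-treated control cultures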
# test_parameters: S. cerevisiae rad50 mutant strain, at 100.0 µM, hits give high values
About 79,000 compounds went through this panel and 15% of them were active in at least one assay; those are over-represented in the sample as a whole.

- compound: "CN(C)/C=C/c1nnc([N+](=O)[O-])s1"
  unit_abbreviation: "%"
  growth inhibition: 96
- compound: "COc1ccc(C(=O)c2ccccc2C(=O)c2ccccc2OC)cc1"
  unit_abbreviation: "%"
  growth inhibition: 13
- compound: "CCOC(=O)c1ccc(NC(=O)O/N=C(/Cl)C(C)C)cc1"
  unit_abbreviation: "%"
  growth inhibition: 87
- compound: "Cc1c2cc[n+](Cc3ccc(I)cc3)cc2c(C)c2c1[nH]c1ccccc12"
  unit_abbreviation: "%"
  growth inhibition: 96
- compound: "Oc1cccc2cc(Cl)cnc12"
  unit_abbreviation: "%"
  growth inhibition: 97
- compound: "CCCCCCC(O)CNCc1ccnc2ccc(OC)cc12 (stereo not drawn)"
  unit_abbreviation: "%"
  growth inhibition: 2
- compound: "COc1cc2cc3c4cc(OC)c(OC)cc4cc[n+]3c(C)c2cc1OC"
  unit_abbreviation: "%"
  growth inhibition: -26
- compound: "Oc1ccc(O)c(Cc2ccccc2)c1"
  unit_abbreviation: "%"
  growth inhibition: 99
- compound: "OC(/C=C/c1ccccc1)(Cc1cc(-c2ccccc2)n[nH]1)c1ccccc1 (stereo not drawn)"
  unit_abbreviation: "%"
  growth inhibition: 13
- compound: "COc1cccc(/C=N/C(/N=C/c2cccc(OC)c2O)c2cccc(OC)c2O)c1O"
  unit_abbreviation: "%"
  growth inhibition: 98
- compound: "CC(C)(C)c1ccc(NS(=O)(=O)c2ccc(N)cc2)cc1"
  unit_abbreviation: "%"
  growth inhibition: 14
- compound: "O=C(O)c1cc2ccc(Cl)cc2c(O)c1C1=CCCCC1"
  unit_abbreviation: "%"
  growth inhibition: 33
- compound: "c1ccc2c(OCC3CO3)cccc2c1 (stereo not drawn)"
  unit_abbreviation: "%"
  growth inhibition: 96

----------
# assay_remarks: NCI Yeast Anticancer Drug Screen. Data for the rad50 strain (AID 155);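 also: 0% = growth of vehicle-only cultures of the same strain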
# test_parameters: S. cerevisiae rad50 strain growth inhibition; at 33.0 µM
Compounds without any hit were thinned out: in the full panel of roughly 79,000, 15% have a hit. Calls of active or inactive are those of the source. Cut-off read from the data, not from the text of the source: active = growth inhibition above about 70%; inactive = the rest.
Labels: active, inactive

- molecule_smiles: "Oc1ccc(-c2nc(-c3ccc(F)cc3)c(-c3ccc4ccccc4n3)[nH]2)cc1"
  answer_label: "active"
- molecule_smiles: "CC(C)c1ccc(NC(=S)NC(=O)c2ccccc2)cc1"
  answer_label: "inactive"
- molecule_smiles: "O=[N+]([O-])c1ccc(N/N=C/Cc2ccccc2)c([N+](=O)[O-])c1"
  answer_label: "inactive"
- molecule_smiles: "O=C(O)c1ccc(N2C(=O)C=CC2=O)cc1"
  answer_label: "inactive"
- molecule_smiles: "Cc1cc(C)c(NC(=S)NC(=O)c2ccccc2)cc1C"
  answer_label: "inactive"

----------
# assay_remarks: NCI Yeast Anticancer Drug Screen. Data for the mgt1 strain (AID 153)
# test_parameters: S. cerevisiae mgt1 mutant growth inhibition; at 3.7 µM; hits give high values
About 79,000 compounds went through this panel and 15% of them were active in at least one assay; those are over-represented in the sample as a whole.
// growth inhibition lookup, one value per entry
recorded_metric: growth inhibition (%)

- compound: "Cc1ccc(Sc2ccccc2N)cc1"
  unit_abbreviation: "%"
  meas_value: -17
- compound: "COc1ccc(C(NCCNC(c2ccc(OC)c(OC)c2)c2cc3c(cc2O)OCO3)c2cc3c(cc2O)OCO3)cc1OC (configuration not stated)"
  unit_abbreviation: "%"
  meas_value: 4
- compound: "COc1cccc2c1C(=O)c1c(O)c3c(c(O)c1C2=O)C[C@@](O)(C(C)=O)C[C@@H]3OC1CC(OC(C)=O)C(OC(C)=O)C(C)O1 (some centres not stated)"
  unit_abbreviation: "%"
  meas_value: -51
- compound: "COC(=O)CC1CCc2c(ccc3ccccc23)C1(C)C(=O)OC (configuration not stated)"
  unit_abbreviation: "%"
  meas_value: 0
- compound: "Cn1c(=O)c2c(nc(N)n2C2OC(CO)C(O)C2O)n(C)c1=O (configuration not stated)"
  unit_abbreviation: "%"
  meas_value: -2
- compound: "O=[N+]([O-])c1cccc2nc3ccccc3c(NCCCn3ccnc3[N+](=O)[O-])c12"
  unit_abbreviation: "%"
  meas_value: 28
- compound: "CC(C)CCCC(C)C1CCC2C3CCC4=CC(=O)/C(=C\\O)CC4(C)C3CCC12C (configuration not stated)"
  unit_abbreviation: "%"
  meas_value: 1

----------
// growth inhibition lookup, one value per entry
# assay_remarks: NCI Yeast Anticancer Drug Screen. Data for the rad14 strain (AID 159);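 also: 0% = growth of vehicle-treated control cultures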
# test_parameters: S. cerevisiae rad14 strain growth inhibition; at 11.0 µM; hits give high values
Compounds without any hit were thinned out: in the full panel of roughly 79,000, 15% have a hit.

- compound: "CN(C)CCNC(=O)c1cccc2cc([N+](=O)[O-])ccc12"
  unit_abbreviation: "%"
  growth inhibition: 47
- compound: "Oc1ccc(-c2nc(-c3ccc(F)cc3)c(-c3ccc4ccccc4n3)[nH]2)cc1"
  unit_abbreviation: "%"
  growth inhibition: -6
- compound: "CCOC1(c2cccc([N+](=O)[O-])c2)c2ccccc2Oc2ccccc21"
  unit_abbreviation: "%"
  growth inhibition: 5
- compound: "Cc1cc(=O)oc2c(C)c3occc(=O)c3cc12"
  unit_abbreviation: "%"
  growth inhibition: 1
- compound: "Oc1[nH]c2ccccc2c1N=NC(=S)N1CCCCC1"
  unit_abbreviation: "%"
  growth inhibition: 9
- compound: "Cc1cc(C(C)(C)CC(C)(C)C)ccc1O"
  unit_abbreviation: "%"
  growth inhibition: 16
- compound: "CCC(C)NC1=NCC(C)S1 (stereo not given)"
  unit_abbreviation: "%"
  growth inhibition: -22
- compound: "Oc1ccc2c(c1)C(O)CCCC2 (stereo not given)"
  unit_abbreviation: "%"
  growth inhibition: 23
- compound: "CCCCCCCCCCCCNC(C)=O"
  unit_abbreviation: "%"
  growth inhibition: -2
- compound: "COC(=O)Oc1cc(Cl)c(Cl)cc1Cl"
  unit_abbreviation: "%"
  growth inhibition: 2

----------
# assay_remarks: NCI Yeast Anticancer Drug Screen. Data for the mgt1 strain (AID 153)
# test_parameters: S. cerevisiae mgt1 mutant growth inhibition; at 3.7 µM; hits give high values
Compounds without any hit were thinned out: in the full panel of roughly 79,000, 15% have a hit.

- molecule: "O=C1NC(SSC2=NNC3(C(=O)N2)c2ccccc2-c2ccccc23)=NNC12c1ccccc1-c1ccccc12"
  growth inhibition, %: 0
- molecule: "COc1cc(O)c2c(c1O)C(=O)c1cc(C)ncc1C2=O"
  growth inhibition, %: 4
- molecule: "Nc1ncc(-c2ccc(Br)cc2)s1"
  growth inhibition, %: -1
- molecule: "CSc1nc(C)c(CCOC(C)=O)c(N=P(c2ccccc2)(c2ccccc2)c2ccccc2)n1"
  growth inhibition, %: 2
- molecule: "CC(NCCN(C)C)C1CCC2C3CCc4cc(O)ccc4C3CCC12C (configuration not stated)"
  growth inhibition, %: 1
- molecule: "Cc1cccc(/C=N/NC(=S)N2CCCC2)n1"
  growth inhibition, %: -14
- molecule: "CCCC/C=C/C(C)(C(=O)OCC)C(=O)OCC"
  growth inhibition, %: -4
- molecule: "CC(=O)Nc1ccc(/C=C/[N+](=O)[O-])cc1"
  growth inhibition, %: -4
- molecule: "COc1cc(C2c3cc4c(cc3OC(OC(C)=O)C2C)OCO4)cc(OC)c1OC (configuration not stated)"
  growth inhibition, %: -1
- molecule: "CC(=O)OC1CCC2(C)C(=CC(C3C=C4CC(OC(C)=O)CCC4(C)C4=C3C3CC5OC6(CCC(C)CO6)C(C)C5C3(C)CC4)C3=C2CCC2(C)C3CC3OC4(CCC(C)CO4)C(C)C32)C1 (configuration not stated)"
  growth inhibition, %: -3
- molecule: "CCCCC(CC)C(=O)[O][Sn]([CH2]CCC)([CH2]CCC)[O]C(=O)C(CC)CCCC (configuration not stated)"
  growth inhibition, %: 9
- molecule: "COc1oc(C(=O)NC2CCCCC2)c(-c2ccc(Cl)cc2)c1S(=O)(=O)c1ccccc1"
  growth inhibition, %: -17
